Species on record: Homo sapiens
method.description: Inhibition of human vascular smooth muscle proliferation was determined
Format: functional
study.conditions: Muscle tissue
Give IC50 for every item shown.
One number for each entry, in µM.

Solved entries (count: 2):
compound	numeric.value
CC(C)COC(=O)N[C@@H](CCC(=O)N1CCN(c2cccc(NC3=NCC(C)(C)CN3)c2)CC1)C(=O)O	3.4
O=C(N[C@@H](CCC(=O)N1CCN(c2cccc(NC3=NCCN3)c2)CC1)C(=O)O)OCc1ccccc1	3

Record IC50 for all entries; do not skip any.
1. CC(C)COC(=O)N[C@@H](CCC(=O)N1CCN(c2cccc(NC3=NCC(O)CN3)c2)CC1)C(=O)O (stereo partly drawn)
2. O=C(N[C@@H](CCC(=O)N1CCN(c2cccc(NC3=NCC(O)CN3)c2)CC1)C(=O)O)OCc1ccccc1 (stereo partly drawn)

A)
1. 2
2. 3.5

###

Species on record: Homo sapiens
method.description: Inhibition of human vascular smooth muscle proliferation was determined
Type: functional
study.conditions: Muscle tissue
readout.type: pIC50
One number for each entry, as −log10 of the molar value.

compound	pIC50
CC(C)COC(=O)N[C@@H](CCC(=O)N1CCN(c2cccc(NC3=NCC(F)CN3)c2)CC1)C(=O)O (some centres not stated)	6.74
O=C(N[C@@H](CCC(=O)N1CCN(c2cccc(NC3=NCC(F)CN3)c2)CC1)C(=O)O)OCc1ccccc1 (some centres not stated)	6.59
O=C(N[C@@H](CCC(=O)N1CCN(c2cccc(NC3=NCCCCN3)c2)CC1)C(=O)O)OCc1ccccc1	5.77
CC(C)COC(=O)N[C@@H](CCC(=O)N1CCN(c2cccc(NC3=NCCCN3)c2)CC1)C(=O)O	6.04
CCOC(=O)N[C@@H](CCC(=O)N1CCN(c2cccc(NC3=NCCCN3)c2)CC1)C(=O)O	5.68

Note: attention shifts to another entry.
Record `O=C(N[C@@H](CCC(=O)N1CCN(c2cccc(NC3=NCCCN3)c2)CC1)C(=O)O)OCc1ccccc1` , field pIC50: 5.96

###

experimental.system: Integrin alpha-IIb/beta-3 (Homo sapiens, UniProt P05106+P08514)
Sequence (P05106 27-788 limits assumed): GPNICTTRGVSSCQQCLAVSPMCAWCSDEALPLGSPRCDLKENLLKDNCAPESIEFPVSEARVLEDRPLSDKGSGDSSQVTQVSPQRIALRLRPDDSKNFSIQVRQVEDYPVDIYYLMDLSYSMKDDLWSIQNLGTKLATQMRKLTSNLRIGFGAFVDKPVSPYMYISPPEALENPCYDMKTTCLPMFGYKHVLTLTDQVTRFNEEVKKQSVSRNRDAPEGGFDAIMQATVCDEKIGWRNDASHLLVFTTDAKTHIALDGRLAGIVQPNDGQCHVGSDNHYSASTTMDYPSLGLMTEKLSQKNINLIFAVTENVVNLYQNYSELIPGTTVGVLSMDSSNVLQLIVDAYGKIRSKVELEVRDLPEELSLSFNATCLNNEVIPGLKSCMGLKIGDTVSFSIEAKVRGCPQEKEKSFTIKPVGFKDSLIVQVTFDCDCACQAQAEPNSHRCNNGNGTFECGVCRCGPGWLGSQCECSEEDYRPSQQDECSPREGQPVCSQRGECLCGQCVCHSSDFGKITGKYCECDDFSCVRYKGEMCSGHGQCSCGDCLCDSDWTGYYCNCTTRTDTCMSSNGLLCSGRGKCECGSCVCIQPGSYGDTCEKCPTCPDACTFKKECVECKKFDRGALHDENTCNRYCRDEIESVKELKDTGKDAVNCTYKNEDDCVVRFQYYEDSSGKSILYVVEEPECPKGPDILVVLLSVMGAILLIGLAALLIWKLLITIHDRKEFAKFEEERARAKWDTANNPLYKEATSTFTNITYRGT
Sequence (P08514 32-887 limits assumed): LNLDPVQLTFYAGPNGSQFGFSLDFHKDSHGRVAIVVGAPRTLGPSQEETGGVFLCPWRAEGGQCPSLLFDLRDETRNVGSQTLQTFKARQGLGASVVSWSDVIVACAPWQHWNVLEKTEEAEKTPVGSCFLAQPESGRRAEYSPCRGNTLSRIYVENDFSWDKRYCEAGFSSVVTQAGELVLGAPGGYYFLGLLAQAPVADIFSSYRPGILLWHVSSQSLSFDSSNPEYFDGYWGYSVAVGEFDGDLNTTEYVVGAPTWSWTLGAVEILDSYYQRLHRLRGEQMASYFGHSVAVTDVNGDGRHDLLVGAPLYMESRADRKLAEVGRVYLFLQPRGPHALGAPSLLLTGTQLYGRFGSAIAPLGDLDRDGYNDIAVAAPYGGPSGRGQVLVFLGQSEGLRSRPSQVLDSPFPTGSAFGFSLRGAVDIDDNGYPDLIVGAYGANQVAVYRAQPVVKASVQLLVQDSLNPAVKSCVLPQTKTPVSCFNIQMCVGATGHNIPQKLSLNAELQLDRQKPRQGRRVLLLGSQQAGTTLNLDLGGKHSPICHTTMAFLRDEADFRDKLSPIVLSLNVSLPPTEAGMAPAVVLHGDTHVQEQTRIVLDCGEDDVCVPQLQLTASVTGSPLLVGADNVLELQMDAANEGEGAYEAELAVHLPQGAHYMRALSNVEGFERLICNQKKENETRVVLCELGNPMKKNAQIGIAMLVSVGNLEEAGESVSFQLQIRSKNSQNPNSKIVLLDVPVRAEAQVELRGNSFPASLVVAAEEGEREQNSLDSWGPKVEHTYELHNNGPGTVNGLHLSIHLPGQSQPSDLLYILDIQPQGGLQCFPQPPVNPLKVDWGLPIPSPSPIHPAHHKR
Sequence (P08514 891-1039 limits assumed): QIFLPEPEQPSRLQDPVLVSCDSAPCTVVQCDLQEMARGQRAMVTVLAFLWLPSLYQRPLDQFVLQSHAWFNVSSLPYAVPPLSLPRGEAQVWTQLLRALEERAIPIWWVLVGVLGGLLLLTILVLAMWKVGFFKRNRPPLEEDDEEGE
method.description: Inhibitory activity was determined against human alpha IIb beta3 integrin
pIC50: −log10 of the molar value.
readout.type: pIC50

Solved entries (count: 5):
molecule	readout.type	result
O=C(N[C@@H](CCC(=O)N1CCN(c2cccc(NC3=NCCCCN3)c2)CC1)C(=O)O)OCc1ccccc1	pIC50	< 6.00
O=C(O)[C@H](CCC(=O)N1CCN(c2cccc(NC3=NCCCN3)c2)CC1)NS(=O)(=O)c1ccccc1	pIC50	7.06
CC(C)COC(=O)N[C@@H](CCC(=O)N1CCN(c2cccc(NC3=NCC(O)CN3)c2)CC1)C(=O)O (stereo partly drawn)	pIC50	< 6.00
CC(C)COC(=O)N[C@@H](CCC(=O)N1CCN(c2cccc(NC3=NCCCN3)c2)CC1)C(=O)O	pIC50	< 6.00
O=C(Cc1ccccc1)N[C@@H](CCC(=O)N1CCN(c2cccc(NC3=NCCCN3)c2)CC1)C(=O)O	pIC50	< 6.00

Record pIC50 for all entries; do not skip any.
1. O=C(N[C@@H](CCC(=O)N1CCN(c2cccc(NC3=NCCCN3)c2)CC1)C(=O)O)OCc1ccccc1
2. CC(C)COC(=O)N[C@@H](CCC(=O)N1CCN(c2cccc(NC3=NCC(C)(C)CN3)c2)CC1)C(=O)O
3. CCNC(=O)N[C@@H](CCC(=O)N1CCN(c2cccc(NC3=NCCCN3)c2)CC1)C(=O)O

A)
[6.18, "< 6.00", "< 6.00"]

Source: ChEMBL document CHEMBL1146737
